Field: Ki. System: UniProt P30542. Provenance: assorted publications.
Sequence (P30542 whole entry): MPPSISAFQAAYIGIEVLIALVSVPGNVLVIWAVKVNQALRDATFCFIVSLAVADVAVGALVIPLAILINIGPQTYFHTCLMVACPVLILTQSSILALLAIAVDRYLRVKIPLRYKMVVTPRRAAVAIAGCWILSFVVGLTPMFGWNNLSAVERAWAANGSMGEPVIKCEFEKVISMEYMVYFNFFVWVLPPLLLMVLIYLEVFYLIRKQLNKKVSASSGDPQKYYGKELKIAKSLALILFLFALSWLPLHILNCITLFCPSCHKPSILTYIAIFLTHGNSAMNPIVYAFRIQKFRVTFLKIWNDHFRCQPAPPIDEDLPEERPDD
Consider the reported Ki of an entry and match it to a band in b0 = under 30 nM, b1 = from 30 nM up to 600 nM, b2 = 600 nM and over

Req: Given "CCCCn1c(=O)[nH]c2nc(-c3cnn(Cc4noc(-c5ccc(Cl)cc5)n4)c3)[nH]c2c1=O" , name the class its Ki places it in.
Resp: b2

Req: Given CCCn1c(=O)c2nc(C3CC4CC3C3OC43)[nH]c2n(CCC)c1=O (stereo in doubt) , name the class its Ki places it in.
Resp: b0

Req: Given "CN(C)c1nc(-c2cccs2)c2sccc2n1" , name the class its Ki places it in.
Resp: b2

Req: Given "N#Cc1c(N)nc(SCCO)c(C#N)c1-c1cccs1" , name the class its Ki places it in.
Resp: b1

Req: Given "COc1cccc(-c2c(C#N)c(N)nc(SCc3ncc[nH]3)c2C#N)c1" , name the class its Ki places it in.
Resp: b0

Req: Given "CCC(O)(C#Cc1nc(N)c2nc(-c3cccc(F)c3)n(C)c2n1)CC" , name the class its Ki places it in.
Resp: b0

Req: Given "Nc1nc2nn(CCc3ccccc3)cc2c2nc(-c3ccc(Cl)cc3)nn12" , name the class its Ki places it in.
Resp: b1

Req: Given Nc1nc(N=NNC(=O)Nc2cccc(Cl)c2)nc2c1ncn2C1O[C@H](CO)[C@@H](O)[C@H]1O (stereo partly drawn) , name the class its Ki places it in.
Resp: b0

Req: Given "C[C@@]1(O)[C@H](O)[C@@H](CO)O[C@H]1n1cnc2c(NC3CCCC3)nc(Cl)nc21" , name the class its Ki places it in.
Resp: b0

Req: Given CCCCC(Nc1nc2nn(C)cc2c2nc(-c3ccco3)nn12)C(=O)OCC (racemic) , name the class its Ki places it in.
Resp: b1

Req: Given C=CCN1C(=O)N2CC(CC)N=C2c2[nH]c(-c3cc(C)n(C)n3)nc21 (racemic) , name the class its Ki places it in.
Resp: b2

Req: Given "Nc1nc(NCc2ccc(S(N)(=O)=O)cc2)nc2sc(-c3ccco3)nc12" , name the class its Ki places it in.
Resp: b1

Req: Given "N#Cc1cnc(N)nc1-c1ccccc1" , name the class its Ki places it in.
Resp: b2

Req: Given "Cn1cc2c(nc(NC(=O)NC3CCN(Cc4cccnc4)CC3)n3nc(-c4ccco4)nc23)n1" , name the class its Ki places it in.
Resp: b2

Req: Given "O=c1[nH]c(N2CCCC2)nc2nccc(-c3ccc(Cl)cc3)c12" , name the class its Ki places it in.
Resp: b2

Req: Given "CCCC(=O)Nc1cc(-c2ccc3c(c2)OCO3)nc(-c2ccc3c(c2)OCO3)n1" , name the class its Ki places it in.
Resp: b0

Req: Given "Nc1nc(Cl)nc2c1nc(-c1ccco1)n2[C@@H]1SC[C@@H](O)[C@H]1O" , name the class its Ki places it in.
Resp: b2

Req: Given "S=c1sc2c(ncn3nc(-c4ccco4)nc23)n1-c1ccc(I)cc1" , name the class its Ki places it in.
Resp: b0

Req: Given "N#Cc1c(-c2cccc(OC(F)(F)F)c2)cc(-c2ccccc2)nc1N" , name the class its Ki places it in.
Resp: b1

Req: Given "Cc1ccc2c(O)c(C(=O)NCCc3ccccc3)cnc2n1" , name the class its Ki places it in.
Resp: b2

Req: Given "CCCn1c(=O)c2nc(-c3ccc(OCc4nc(-c5cccc(C)c5)no4)cc3)[nH]c2n(CCC)c1=O" , name the class its Ki places it in.
Resp: b2

Req: Given "CCCn1c(=O)c2[nH]c(-c3ccc(OCc4noc(-c5ccc(C#N)cc5)n4)cc3)nc2n(CCC)c1=O" , name the class its Ki places it in.
Resp: b1

Req: Given "CN1CCN(c2nc(-c3ccc(Cl)c(Cl)c3)nc3[nH]cnc23)CC1" , name the class its Ki places it in.
Resp: b2

Req: Given "CCCC(=O)Nc1nnc(-c2ccccc2)[nH]1" , name the class its Ki places it in.
Resp: b2

Req: Given "CCNC(=O)[C@H]1O[C@@H](n2cnc3c(Nc4ccc(OCC(=O)Nc5ccccc5C(F)(F)F)cc4)ncnc32)[C@H](O)[C@@H]1O" , name the class its Ki places it in.
Resp: b1

Req: Given "Cc1cc2nc(-c3cnc4ccccc4n3)[nH]c2cc1C" , name the class its Ki places it in.
Resp: b2

Req: Given "CCCn1c(=O)c2c(nc3[nH]c(-c4ccccc4)cn32)n(Cc2ccccc2)c1=O" , name the class its Ki places it in.
Resp: b2
